Quick reference: fold affinity vs original of the listed items.
Biological target: binding partner of C5A (XPA23)
Assay: Biacore
Numbers only; they are read as fold.

Below are worked cases with known answers.
C5A (XPA23) VH Y107R (antibody, V domains shown) VH: EVQLLESGGGLVQPGGSLRLSCAASGFTFSKYFMFWVRQAPGKGLEWVSVISPSGGMTRYADSVKGRFTISRDNSKNTLYLQMNSLRAEDTAVYYCARVGYGGNSDRWGQGTLVTVSS VL: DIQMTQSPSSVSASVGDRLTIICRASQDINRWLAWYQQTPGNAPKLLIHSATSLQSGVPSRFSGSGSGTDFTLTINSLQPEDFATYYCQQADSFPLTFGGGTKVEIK | 0.85
C5A (XPA23) VH G56Q (antibody, V domains shown) VH: EVQLLESGGGLVQPGGSLRLSCAASGFTFSKYFMFWVRQAPGKGLEWVSVISPSGQMTRYADSVKGRFTISRDNSKNTLYLQMNSLRAEDTAVYYCARVGYGGNSDYWGQGTLVTVSS VL: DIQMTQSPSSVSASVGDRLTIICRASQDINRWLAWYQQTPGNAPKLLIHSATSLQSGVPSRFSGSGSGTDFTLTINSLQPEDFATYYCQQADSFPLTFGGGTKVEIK | 1.31
C5A (XPA23) VH S105F (antibody, V domains shown) VH: EVQLLESGGGLVQPGGSLRLSCAASGFTFSKYFMFWVRQAPGKGLEWVSVISPSGGMTRYADSVKGRFTISRDNSKNTLYLQMNSLRAEDTAVYYCARVGYGGNFDYWGQGTLVTVSS VL: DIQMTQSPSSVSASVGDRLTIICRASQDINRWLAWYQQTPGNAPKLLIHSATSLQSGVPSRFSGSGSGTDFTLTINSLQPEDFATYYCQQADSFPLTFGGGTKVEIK | 1.25
C5A (XPA23) VH S54Q (antibody, V domains shown) VH: EVQLLESGGGLVQPGGSLRLSCAASGFTFSKYFMFWVRQAPGKGLEWVSVISPQGGMTRYADSVKGRFTISRDNSKNTLYLQMNSLRAEDTAVYYCARVGYGGNSDYWGQGTLVTVSS VL: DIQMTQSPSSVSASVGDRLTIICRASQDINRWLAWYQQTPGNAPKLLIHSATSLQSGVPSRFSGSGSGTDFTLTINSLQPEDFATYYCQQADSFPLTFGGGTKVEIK | 1.01

Attention now turns to another entry.
In plain terms, C5A (XPA23) VH G100S (antibody, V domains shown) VH: EVQLLESGGGLVQPGGSLRLSCAASGFTFSKYFMFWVRQAPGKGLEWVSVISPSGGMTRYADSVKGRFTISRDNSKNTLYLQMNSLRAEDTAVYYCARVSYGGNSDYWGQGTLVTVSS VL: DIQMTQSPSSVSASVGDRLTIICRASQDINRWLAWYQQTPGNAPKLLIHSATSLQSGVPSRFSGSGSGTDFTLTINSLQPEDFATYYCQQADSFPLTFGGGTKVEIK has a documented fold affinity vs original of 2.8

Provenance of the data: patent US20110118447A1
